Values were extracted from the supplement of paper PMC7877785.

Test: self-splicing fitness, log relative to wild type (ln ratio); higher = more splicing; Tetrahymena group I intron in knt gene, E. coli kanamycin selection, DiMSum; sequences stand for … in CUCUCU…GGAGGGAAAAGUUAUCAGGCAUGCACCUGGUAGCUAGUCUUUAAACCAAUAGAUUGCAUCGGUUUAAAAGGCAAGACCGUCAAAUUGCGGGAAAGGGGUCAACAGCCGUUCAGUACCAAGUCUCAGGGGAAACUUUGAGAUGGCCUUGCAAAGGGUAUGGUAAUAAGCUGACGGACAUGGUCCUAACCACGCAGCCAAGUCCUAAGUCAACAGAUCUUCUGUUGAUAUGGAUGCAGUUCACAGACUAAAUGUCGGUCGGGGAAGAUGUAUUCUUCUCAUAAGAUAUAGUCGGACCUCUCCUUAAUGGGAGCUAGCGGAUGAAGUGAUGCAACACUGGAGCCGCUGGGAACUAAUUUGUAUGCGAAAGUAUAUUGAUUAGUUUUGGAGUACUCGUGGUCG;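 note: selection with 25 µg/mL kanamycin versus none on LB agar overnight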
Details: 30 °C
Parameter class (string): assigned from measured self-splicing fitness (ln). Ranges: 0: < -1; 1: ≥ -1 and < -0.5; 2: ≥ -0.5

Consider the following illustrative entries.
sequence | labelClass
CUAGAGCAAUAUUACGUGAG | 2
CUCGAGCAAUAUUACGUUAU | 0
AUGUAGCAAUAUUACGGGAA | 0

Query: Kindly identify the class of GAUAAGCAAUAUUACGGCCC .
Response: 1

Query: Exercise: read the entry CGGUAGCAAUAUUACGACAG and state which class it falls under.
Response: 2

Query: Form: Item = UGAUAGCAAUAUUACGUGCG ; Class = ?
Response: 1

Query: Which class does GCAGAGCAAUAUUACGACAC fall in?
Response: 0

Query: Place this sequence in its band: GCACAGCAAUAUUACGUCUU
Response: 1

###

Overview of recorded self-splicing fitness (ln) for various sequences
Experiment: self-splicing fitness, log relative to wild type (ln ratio); higher = more splicing; Tetrahymena group I intron in knt gene, E. coli kanamycin selection, DiMSum; sequences stand for … in CUCUCU…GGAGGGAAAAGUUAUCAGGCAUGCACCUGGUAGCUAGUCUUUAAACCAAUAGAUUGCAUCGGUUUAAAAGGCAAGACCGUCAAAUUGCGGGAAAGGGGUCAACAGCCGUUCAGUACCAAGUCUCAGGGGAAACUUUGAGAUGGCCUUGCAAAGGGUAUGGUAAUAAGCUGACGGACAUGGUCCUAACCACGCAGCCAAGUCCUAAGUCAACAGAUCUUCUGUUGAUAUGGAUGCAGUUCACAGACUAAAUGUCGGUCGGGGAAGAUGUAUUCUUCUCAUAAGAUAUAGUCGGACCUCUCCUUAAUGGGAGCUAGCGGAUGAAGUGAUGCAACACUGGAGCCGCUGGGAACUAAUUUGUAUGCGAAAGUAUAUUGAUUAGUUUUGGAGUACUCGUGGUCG
Details: 37 °C
Give a plain numeric answer without units written out.

Recorded self-splicing fitness (ln), per entry:
sequence | self-splicing fitness (ln)
ACAAAGCAAUAUUACGUCUG | -0.244
UCCUAGCAAUAUUACGUGGA | -2.74
UCCCAGCAAUAUUACGCGUU | -0.493
CAGGAGCAAUAUUACGGUCU | -2.84
ACUAAGCAAUAUUACGGUGG | -2.84
CCUGAGCAAUAUUACGGAUG | -1.31

Query: For the sequence shown here, AGGAAGCAAUAUUACGUAAG , give the reported self-splicing fitness (ln).
Response: -2.01

Query: Need self-splicing fitness (ln) of AUCGAGCAAUAUUACGUACU , thanks.
Response: -0.28

###

Assay: self-splicing fitness, log relative to wild type (ln ratio); higher = more splicing; Tetrahymena group I intron in knt gene, E. coli kanamycin selection, DiMSum; sequences stand for … in CUCUCU…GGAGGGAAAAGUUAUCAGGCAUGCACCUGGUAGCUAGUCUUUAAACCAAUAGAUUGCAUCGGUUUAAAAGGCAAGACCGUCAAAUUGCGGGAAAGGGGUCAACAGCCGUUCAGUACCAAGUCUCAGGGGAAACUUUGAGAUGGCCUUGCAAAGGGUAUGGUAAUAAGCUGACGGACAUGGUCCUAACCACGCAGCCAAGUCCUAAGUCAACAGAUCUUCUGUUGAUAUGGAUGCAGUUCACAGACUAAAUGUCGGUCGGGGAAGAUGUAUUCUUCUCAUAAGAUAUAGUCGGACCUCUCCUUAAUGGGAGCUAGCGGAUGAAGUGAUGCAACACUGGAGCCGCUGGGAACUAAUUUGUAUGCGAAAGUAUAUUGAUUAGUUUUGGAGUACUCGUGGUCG
Settings: 30 °C
measurementKind: self-splicing fitness (ln)
Number only, please.

Solved cases (6 shown):
sequence | self-splicing fitness (ln)
UUACAGCAAUAUUACGGAUA | -2.25
GCAGAGCAAUAUUACGUAGU | -3.3
UAUAAGCAAUAUUACGGUCU | -1.22
CUCUAGCAAUAUUACGGGUU | -4.28
UGUUAGCAAUAUUACGAGUA | -1.32
GAUUAGCAAUAUUACGGGCC | -1.66

Query: // lookup self-splicing fitness (ln) for UUGCAGCAAUAUUACGGCCA
Response: -0.118

Query: Given the entry UCUCAGCAAUAUUACGCGGG , report its measured self-splicing fitness (ln).
Response: -1.7

Query: Could you tell me which self-splicing fitness (ln) is on file for UCCUAGCAAUAUUACGCCUC ?
Response: -2.62

Query: Would you kindly share the measured self-splicing fitness (ln) for UGGGAGCAAUAUUACGUGGC ?
Response: -4.39

###

Assay: self-splicing fitness, log relative to wild type (ln ratio); higher = more splicing; Tetrahymena group I intron in knt gene, E. coli kanamycin selection, DiMSum; sequences stand for … in CUCUCU…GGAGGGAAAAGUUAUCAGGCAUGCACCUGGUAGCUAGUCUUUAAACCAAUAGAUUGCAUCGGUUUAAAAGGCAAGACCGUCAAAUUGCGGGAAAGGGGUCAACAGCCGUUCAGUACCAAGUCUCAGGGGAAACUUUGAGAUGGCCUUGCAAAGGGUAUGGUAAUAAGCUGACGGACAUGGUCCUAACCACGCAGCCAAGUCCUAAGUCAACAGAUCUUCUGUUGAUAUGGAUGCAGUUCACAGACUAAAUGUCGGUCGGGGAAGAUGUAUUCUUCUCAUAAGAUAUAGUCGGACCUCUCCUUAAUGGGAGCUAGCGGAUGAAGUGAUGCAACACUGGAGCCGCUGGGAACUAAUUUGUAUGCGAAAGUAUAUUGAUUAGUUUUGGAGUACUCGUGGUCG
Conditions: 30 °C
Listed here: items and their measured self-splicing fitness (ln).
I'd appreciate a reply containing only the number, no unit.

For orientation, consider the following solved cases.
sequence | self-splicing fitness (ln)
AGCAAGCAAUAUUACGUUGA | -2.95
AUUCAGCAAUAUUACGAAAU | -1
GCAUAGCAAUAUUACGCCGG | -3
AGUCAGCAAUAUUACGGAUA | -0.982

Next sequence, self-splicing fitness (ln) to be filled in.
Query: Fill in: self-splicing fitness (ln) of GCGUAGCAAUAUUACGGUAA is ___
Response: -1.02

###

Catalogue of sequences with associated self-splicing fitness (ln)
Assay: self-splicing fitness, log relative to wild type (ln ratio); higher = more splicing; Tetrahymena group I intron in knt gene, E. coli kanamycin selection, DiMSum; sequences stand for … in CUCUCU…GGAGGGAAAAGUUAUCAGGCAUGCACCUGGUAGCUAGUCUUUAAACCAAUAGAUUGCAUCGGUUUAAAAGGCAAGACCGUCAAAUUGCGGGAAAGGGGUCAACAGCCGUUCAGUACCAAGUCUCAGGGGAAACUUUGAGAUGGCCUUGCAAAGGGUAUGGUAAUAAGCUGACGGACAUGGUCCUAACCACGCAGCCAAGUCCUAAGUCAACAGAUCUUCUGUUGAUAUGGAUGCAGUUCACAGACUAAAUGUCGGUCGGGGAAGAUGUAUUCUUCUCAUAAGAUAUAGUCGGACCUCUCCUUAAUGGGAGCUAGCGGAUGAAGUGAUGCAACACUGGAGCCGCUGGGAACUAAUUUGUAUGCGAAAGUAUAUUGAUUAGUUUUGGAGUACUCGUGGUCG
Settings: 30 °C
Please reply with the value in numeric form only.

Sample answers from the record:
sequence | self-splicing fitness (ln)
CAGGAGCAAUAUUACGCAAG | -2.98
ACAGAGCAAUAUUACGCCAA | -2.92
UAUAAGCAAUAUUACGGAUU | -3.03

Query: Form field: reported self-splicing fitness (ln) of AGGAAGCAAUAUUACGUUAG
Response: -2.95

###

Test: self-splicing fitness, log relative to wild type (ln ratio); higher = more splicing; Tetrahymena group I intron in knt gene, E. coli kanamycin selection, DiMSum; sequences stand for … in CUCUCU…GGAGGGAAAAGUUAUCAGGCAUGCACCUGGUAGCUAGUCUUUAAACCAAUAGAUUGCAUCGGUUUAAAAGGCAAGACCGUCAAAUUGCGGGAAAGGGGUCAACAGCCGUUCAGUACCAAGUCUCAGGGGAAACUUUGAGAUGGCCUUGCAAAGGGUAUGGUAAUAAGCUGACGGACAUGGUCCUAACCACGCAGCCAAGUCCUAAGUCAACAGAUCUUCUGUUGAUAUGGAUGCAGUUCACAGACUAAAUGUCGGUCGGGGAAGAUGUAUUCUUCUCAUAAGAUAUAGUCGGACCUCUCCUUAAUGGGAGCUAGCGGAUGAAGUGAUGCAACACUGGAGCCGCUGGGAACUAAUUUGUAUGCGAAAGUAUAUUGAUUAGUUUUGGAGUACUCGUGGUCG
Settings: 30 °C
Could you label it rule met if measured self-splicing fitness (ln) is -3 or higher, and rule not met otherwise?

For orientation, consider the following solved cases.
sequence | labelClass
GAGAAGCAAUAUUACGUCCC | rule met
GCGGAGCAAUAUUACGCGGG | rule not met

Query: Is self-splicing fitness (ln) at least -3? Consider GGCGAGCAAUAUUACGUGUG
Response: rule met

Query: Quick check, self-splicing fitness (ln) >= -3? CCUCAGCAAUAUUACGCUGU
Response: rule met

Query: I'd appreciate it if you could say whether GCAAAGCAAUAUUACGGCAC has self-splicing fitness (ln) at least equal to -3.
Response: rule met

Query: Kindly determine if self-splicing fitness (ln) recorded for CCCCAGCAAUAUUACGAAAU is above or exactly -3.
Response: rule not met

Query: Threshold query (self-splicing fitness (ln) >= -3) on GUUUAGCAAUAUUACGCCAA
Response: rule met

Query: Is it the case that UCCCAGCAAUAUUACGUACU has self-splicing fitness (ln) reaching or exceeding -3?
Response: rule not met

Query: Given the entry GAAAAGCAAUAUUACGCGUA , answer whether its self-splicing fitness (ln) meets or surpasses -3.
Response: rule met

Query: Please check the record UAACAGCAAUAUUACGAUAG and state if its self-splicing fitness (ln) is at or above -3.
Response: rule met

Query: Kindly determine if self-splicing fitness (ln) recorded for UUAAAGCAAUAUUACGAACG is above or exactly -3.
Response: rule met

Query: Textbook exercise: given the entry GAAUAGCAAUAUUACGAGCA , state whether its self-splicing fitness (ln) is greater than or equal to -3.
Response: rule met

Query: Test whether the sequence UGUAAGCAAUAUUACGCAGA records self-splicing fitness (ln) of -3 or higher.
Response: rule not met

Query: Test whether the sequence UGGUAGCAAUAUUACGCACG records self-splicing fitness (ln) of -3 or higher.
Response: rule met

Query: // inclusive: self-splicing fitness (ln) at least -3? input: AAACAGCAAUAUUACGGCGU
Response: rule met

Query: Could you tell me if the measured self-splicing fitness (ln) of UAAUAGCAAUAUUACGGGGU reaches -3 or more?
Response: rule not met
